Values from ChEMBL document CHEMBL4513216

- Tested on: Plasmodium berghei
- PROTOCOL: Screen against P. berghei liver stage (PbLuc), transformed with Luciferase, at 10uM
- Format: functional, HepG2
- CONDITION DETAILS: tested at 10 uM
Hit rate of the full screen: of about 69,000 compounds, about 8,600 (12%) showed an effect of 50% or more. The list comes from a sample in which strong results are over-represented; it also holds close analogues and randomly drawn compounds.
Record form. Attribute: INHIBITION. Fill in for each entry.

Past entries and their recorded results:
c1coc(-c2nc(CNC3CCCNC3)no2)c1 (stereo unspecified) ... -25.6%
Cc1nccn1-c1ccc(=O)n(CCNC(=O)c2cccs2)n1 ... 18.7%
Cc1nc(C)n(CC2CCCCN2Cc2nc(-c3ccco3)no2)n1 (stereo unspecified) ... -12.915%
Cc1cccc(C(=O)N2CCCCC2c2[nH]ncc2S(C)(=O)=O)c1 (stereo unspecified) ... 4.08%
CN(C)c1ncc2c(O)nc(C3CCCNC3)cc2n1 (stereo unspecified) ... 24.8%

GET /values?readout=INHIBITION&item= Cn1cc(N2C(=O)CC[C@@H]3[C@H]2CCN3CC2CCOCC2)cn1
8.52%

---

Provide the recorded INHIBITION for the entries that follow.
- Test system: Plasmodium berghei
- PROTOCOL: Screen against P. berghei liver stage (PbLuc), transformed with Luciferase, at 10uM
- Format: functional, HepG2
- CONDITION DETAILS: tested at 10 uM
Out of some 69,000 compounds screened, about 8,600 (12%) showed an effect of 50% or more. The sample as a whole holds a higher share of strong results than the screen did.
One number for each entry, in %.

These solved cases illustrate the format of a correct answer.
Cc1ccccc1C(C)NC(=O)CSCC#N (configuration not stated) ... 31.9
CCC1=N[C@@]2(CC[C@@H]3CN(C(=O)NCC4CCCCC4)C[C@@H]32)C(=O)N1 ... 47.4
Cc1nn(-c2ccccc2)c(C)c1-c1ccnc(N2CCCNCC2)n1 ... 85.8
NC(=O)C1CN(C(=O)Nc2ccccc2OCC(F)(F)F)CCO1 (configuration not stated) ... 31.2
CCC(O)Cn1cc(C2=CCN(Cc3ccc(OC)cc3)CC2)cn1 (configuration not stated) ... -8.97

I have 8 compounds here; please give me INHIBITION for each one.
1. COCC(=O)N1CCCC1c1cccc(Nc2ncc(C)s2)n1 (configuration not stated)
2. O=C(CC1=CSC2=NCCCN12)N1CCCCCC1c1ccco1 (configuration not stated)
3. c1ccc(OCc2noc(CN3CCN(C4CCCC4)CC3)n2)cc1
4. CC1=N[C@@]2(CC[C@@H]3CN(C(=O)NCc4ccccc4C)C[C@@H]32)C(=O)N1
5. Cc1nn(-c2ccccc2)c(C)c1-c1ccnc(N2CCC(O)CC2)n1
6. C[C@@H]1C(=O)NC[C@H]2CN(Cc3ccsc3)C[C@H]21
7. CCN(CC)S(=O)(=O)N1CCCC1c1cccc(Nc2ncc(C)s2)n1 (configuration not stated)
8. CNc1cc(C(=O)NCCC2=CSC3=NCCCN23)ccn1

42.4
-4.01
40.9
28.7
20.2
27.4
76.1
50.3

Kindly give each listed record's INHIBITION.
1. CCC1=N[C@@]2(CC[C@@H]3CN(C(=O)NCc4cccc(F)c4)C[C@@H]32)C(=O)N1
2. Cc1cnc(Nc2cccc(C3CCCN3Cc3cn(C)nc3C)n2)s1 (configuration not stated)
3. Cc1nc(C(C)C)sc1C(=O)NCCNc1ncccc1C#N
4. CCC1=N[C@@]2(CC[C@@H]3CN(C(=O)NCc4ccccc4)C[C@@H]32)C(=O)N1C
5. CCC1=N[C@@]2(CC[C@@H]3CN(C(=O)NCc4ccccc4)C[C@@H]32)C(=O)N1
6. CC(C)(O)CCc1cccc(C(=O)NCCC2=CSC3=NCCCN23)c1

1. 39.2
2. 64.5
3. -29.1
4. 25
5. 50
6. 31.2

For each of the compounds below, note its INHIBITION.
1. c1ccc(OCc2noc(CN3CCC(N4CCSCC4)CC3)n2)cc1
2. Cc1ccc(C2CCCCCN2Cc2cn(C)nc2C)s1 (configuration not stated)
3. CC1=N[C@@]2(CC[C@@H]3CN(C(=O)NCCc4ccccc4)C[C@@H]32)C(=O)N1

[79.5, 27.6, 13.6]

---

Provide the reported INHIBITION of each item.
- Test system: Plasmodium berghei
- PROTOCOL: Screen against P. berghei liver stage (PbLuc), transformed with Luciferase, at 10uM
- Assay type: functional, HepG2
- CONDITION DETAILS: tested at 10 uM
About 8,600 (12%) of roughly 69,000 compounds showed an effect of 50% or more. The sample as a whole holds a higher share of strong results than the screen did.
Answers are plain numbers, in %.

The following compounds have reported results that may help.
CN(C)C(=O)c1c[nH]nc1C1CCN(S(=O)(=O)c2ccccc2)CC1 ... -36.4
Cn1ccnc1CCNS(=O)(=O)c1cccnc1 ... 38.6
CCn1cc(S(=O)(=O)N2CCCCCC2c2cc(C)no2)cn1 (stereo unspecified) ... -7.66
c1cc(-c2cnc(C3CCNCC3)cn2)n[nH]1 ... 38.7
CC(=O)NCCNC(=O)CN1CCCC(Cn2cncn2)C1 (stereo unspecified) ... 29.7
O=C(Oc1ccccc1)N1CCC(CNS(=O)(=O)c2cccnc2)CC1 ... 18.2
CN(C)CCn1ccnc1C1CCN(c2cc(N)nc(N)n2)CC1 ... 50.5
COc1ccc(CC(=O)NC2CCN(CC(F)F)CC2)cc1OC ... 14.4
c1ccc(CN2CCN3C[C@H](Oc4cccnc4)C[C@H]3C2)nc1 ... 41.2
COc1cc(N2CCC(c3nccn3CCCN(C)C)CC2)nc(N)n1 ... -10.9

Below: the item to evaluate.
For c1ccc(CN2CCN3C[C@H](Oc4cncnc4)C[C@H]3C2)nc1 , what is its reported INHIBITION?
-8.6

---

- System: Plasmodium berghei
- PROTOCOL: Screen against P. berghei liver stage (PbLuc), transformed with Luciferase, at 10uM
- Type: functional, HepG2
- CONDITION DETAILS: tested at 10 uM
Out of some 69,000 compounds screened, about 8,600 (12%) showed an effect of 50% or more. The list comes from a sample in which strong results are over-represented; it also holds close analogues and randomly drawn compounds.
The label satisfied is reserved for INHIBITION strictly under -20%; not satisfied covers values equal to or above it.

These solved cases illustrate the format of a correct answer.
O=C(CCC1CCCC1)NCc1nnc2ccccn12 ... not satisfied
CN(Cc1nnc2ccccn12)C(=O)CCC1CCCC1 ... not satisfied
Cc1nn(C)c(N(C)C)c1CNCc1nnc2n1CCCCC2 ... not satisfied
Cn1cccc1CNC(=O)CCCc1nnc2ccccn12 ... satisfied

Please state whether INHIBITION is below -20% for O=C(CCC1CCCCC1)NCc1nnc2ccccn12
not satisfied

Is the reported INHIBITION for Cc1nonc1CC(=O)N1CCC2(CCCN(C3CCOCC3)C2=O)C1 (configuration not stated) strictly below -20%?
satisfied

Lab log: compare recorded INHIBITION with -20%; is it strictly lower for CC(C)c1noc(-c2ccc(NCC3CCCOC3)nc2)n1 (configuration not stated) ?
satisfied

---

- Tested on: Plasmodium berghei
- PROTOCOL: Screen against P. berghei liver stage (PbLuc), transformed with Luciferase, at 10uM
- Format: functional, HepG2
- CONDITION DETAILS: tested at 10 uM
In all, about 69,000 compounds went through this assay and about 8,600 (12%) showed an effect of 50% or more. Many of the other results were omitted from the sample, so strong results are more common in it than they were.
For each record, write down the corresponding INHIBITION.
Give bare numbers, in %.

Field: example entries. Status: answers known.
Cc1ccc(C2(O)CCN(C(=O)c3ccc(S(N)(=O)=O)cc3)CC2)nc1 ... 38
O=C(c1sccc1C1CC1)N1CCN(c2cnccn2)CC1 ... 44
CCc1nc(CN(C)C2CCN(CC(F)(F)F)C2)no1 (centres undefined) ... 4.71

Record INHIBITION for all entries; do not skip any.
1. Cc1cnc(N2CCOC3(CCCN(c4ncccn4)C3)C2)nc1 (centres undefined)
2. COC1(CNC(=O)c2ccc3nsnc3c2)CCSC1 (centres undefined)
3. C[C@@H]1C[C@@H]2CCN(Cc3nccs3)C[C@H]2O1
4. CCCn1cc(CN2CCCC2c2cccc(-n3ccnc3)n2)cn1 (centres undefined)
5. CC(C1CCN(Cc2c(Cl)cncc2Cl)CC1)N1CCOCC1 (centres undefined)
6. CCS(=O)(=O)N1CCCC2(COCCN(c3ccccn3)C2)C1 (centres undefined)
7. CCCS(=O)(=O)N1CCOCC2(CCN(c3ccccn3)C2)C1 (centres undefined)

1: 0.804; 2: -3.83; 3: 40.8; 4: 15.9; 5: 52.5; 6: 56.1; 7: 20.5

Required: INHIBITION, one value per molecule below.
1. Cc1nc(-c2cc(Cl)cc3c2OC(CN)C3)c[nH]1 (centres undefined)
2. COCC(=O)N1CCC(O)(CN2CCN(c3ccccc3)CC2)C1 (centres undefined)

1. 68.3
2. 39.7
